target: HIV gp120 Bal (HIV); experiment: single-point ELISA; also: test concentration or dose not given here
We begin with a simple list: items and their reported ELISA (A450).
Measured Property: ELISA (A450)

>  <Binder>
1.1.35-1 (antibody, human IgG1, kappa, V domains shown) VH: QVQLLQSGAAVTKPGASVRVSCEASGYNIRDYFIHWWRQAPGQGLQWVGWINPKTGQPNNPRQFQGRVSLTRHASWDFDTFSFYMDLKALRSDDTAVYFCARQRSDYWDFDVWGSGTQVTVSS VL: DIQMTQSPSSLSASVGDRVTITCQANGYLNWYQQKPGKAPKLLIYDGSNLETGVPSRFSGSRWGQEYTLTISSLQPEDIATYFCQVYEFVGPGTNLDIKR

>  <Measured Property>
ELISA (A450)

>  <Quantitative Readout>
0.96

$$$$
>  <Binder>
1.35.35-1 (antibody, human IgG1, kappa, V domains shown) VH: QVQLVQSGAEVKKPGASVRVSCKASGYNIRDYFMHWWRQAPGQGLQWVGWINPKTGQPNNPRQFQGRVTMTRHASWDFDTFSFYMDLSRLRSDDTATYFCARQRTDYWDFDVWGQGTMVTVSS VL: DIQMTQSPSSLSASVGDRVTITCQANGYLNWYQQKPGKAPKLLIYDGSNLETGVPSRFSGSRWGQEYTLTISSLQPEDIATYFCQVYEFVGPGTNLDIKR

>  <Measured Property>
ELISA (A450)

>  <Quantitative Readout>
0.88

$$$$
>  <Binder>
1.13.17-1 (antibody, human IgG1, kappa, V domains shown) VH: QVQLLQSGAAVTKPGASVRVSCEASGYNIRDYFMHWVRQAPGQGLQWVGWINPKTGQPNNPRQFQGRVSLTRHASWDFDTFSFYMDLKALRSDDTAVYFCARQRSDYWDFDVWGSGTQVTVSS VL: DIQMTQSPSSLSASVGDTVTITCQANGYLNWYQQRRGKAPKLLIYDGSKLERGVPSRFSGRRWGQEYNLTINNLQPEDIATYFCQVYEFFGPGTRLDLKR

>  <Measured Property>
ELISA (A450)

>  <Quantitative Readout>
1.02

$$$$
>  <Binder>
1.33.35-1 (antibody, human IgG1, kappa, V domains shown) VH: QVQLVQSGAEVKKPGASVRVSCKASGYNIRDYFIHWWRQAPGQGLQWVGWINPKTGQPNNPRQFQGRVTLTRHASWDFDTFSFYMDLKALRSDDTATYFCARQRSDYWDFDVWGSGTQVTVSS VL: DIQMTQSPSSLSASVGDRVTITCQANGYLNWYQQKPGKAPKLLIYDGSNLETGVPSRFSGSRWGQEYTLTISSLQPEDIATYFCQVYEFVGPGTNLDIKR

>  <Measured Property>
ELISA (A450)

>  <Quantitative Readout>
1.03

$$$$
>  <Binder>
1.34.35-1 (antibody, human IgG1, kappa, V domains shown) VH: QVQLVQSGAEVKKPGASVRVSCKASGYNIRDYFIHWWRQAPGQGLQWVGWINPKTGQPNNPRQFQGRVTLTRHASWDFDTFSFYMDLKALRSDDTAVYFCARQRTDYWDFDVWGSGTQVTVSS VL: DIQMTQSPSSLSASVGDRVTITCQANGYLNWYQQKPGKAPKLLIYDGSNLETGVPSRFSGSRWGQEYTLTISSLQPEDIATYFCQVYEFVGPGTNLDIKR

>  <Measured Property>
ELISA (A450)

>  <Quantitative Readout>
0.94

$$$$
>  <Binder>
1.32.35-1 (antibody, human IgG1, kappa, V domains shown) VH: QVQLVQSGAEVTKPGASVRVSCEASGYNIRDYFIHWWRQAPGQGLQWVGWINPKTGQPNNPRQFQGRVSLTRHASWDFDTFSFYMDLKALRSDDTAVYFCARQRTDYWDFDVWGSGTQVTVSS VL: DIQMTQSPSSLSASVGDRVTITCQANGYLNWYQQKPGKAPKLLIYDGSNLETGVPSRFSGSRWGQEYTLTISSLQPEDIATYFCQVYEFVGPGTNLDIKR

>  <Measured Property>
ELISA (A450)

>  <Quantitative Readout>
0.89

$$$$
>  <Binder>
1.31.35-1 (antibody, human IgG1, kappa, V domains shown) VH: QVQLVQSGAEVTKPGASVRVSCEASGYNIRDYFIHWWRQAPGQGLQWVGWINPKTGQPNNPRQFQGRVSLTRHASWDFDTFSFYMDLKALRSDDTATYFCARQRSDYWDFDVWGSGTQVTVSS VL: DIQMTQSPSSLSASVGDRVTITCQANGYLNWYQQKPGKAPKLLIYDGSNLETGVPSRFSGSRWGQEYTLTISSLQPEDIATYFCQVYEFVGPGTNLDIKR

>  <Measured Property>
ELISA (A450)

>  <Quantitative Readout>
0.9

$$$$
>  <Binder>
1.36.35-1 (antibody, human IgG1, kappa, V domains shown) VH: QVQLVQSGAEVKKPGASVRVSCKASGYNIRDYFMHWWRQAPGQGLQWVGWINPKTGQPNNPRQFQGRVTMTRHASWDFDTFSAYMDLSRLRSDDTATYFCARQRTDYWDFDVWGQGTMVTVSS VL: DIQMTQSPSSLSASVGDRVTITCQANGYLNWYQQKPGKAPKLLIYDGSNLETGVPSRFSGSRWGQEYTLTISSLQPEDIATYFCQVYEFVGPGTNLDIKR

>  <Measured Property>
ELISA (A450)

>  <Quantitative Readout>
0.89

$$$$
>  <Binder>
1.12.17-1 (antibody, human IgG1, kappa, V domains shown) VH: QVQLLQSGAAVTKPGASVRVSCEASGYNIRDYFIHWVRQAPGQGLQWVGWINPKTGQPNNPRQFQGRVSLTRHASWDFDTFSFYMDLKALRSDDTAVYFCARQRSDYWDFDVWGSGTQVTVSS VL: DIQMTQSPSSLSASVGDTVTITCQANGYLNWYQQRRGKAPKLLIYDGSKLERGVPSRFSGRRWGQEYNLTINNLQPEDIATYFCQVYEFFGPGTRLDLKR

>  <Measured Property>
ELISA (A450)

>  <Quantitative Readout>
0.9

$$$$
>  <Binder>
1.14.17-1 (antibody, human IgG1, kappa, V domains shown) VH: QVQLLQSGAAVTKPGASVRVSCEASGYNIRDYFMHWVRQAPGQGLQWVGWINPKTGQPNNPRQFQGRVSLTRHASWDFDTFSAYMDLKALRSDDTAVYFCARQRSDYWDFDVWGSGTQVTVSS VL: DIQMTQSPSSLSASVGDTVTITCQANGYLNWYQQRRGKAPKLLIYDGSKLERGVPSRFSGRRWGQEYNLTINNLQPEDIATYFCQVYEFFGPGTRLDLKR

>  <Measured Property>
ELISA (A450)

>  <Quantitative Readout>
0.89

$$$$
